Molecular target: recombinant human α-glucosidase GAA (Homo sapiens, UniProt P10253)
Test: Inhibition of recombinant human α-glucosidase GAA
Type: biochemical
pKi: −log10 of the molar value.
result-type: pKi

1 = [O-][C@@H](CO)[C@H](O)C[S@+]1C[C@@H](O)[C@H](O)[C@H]1CO [Compound 2, neosalacinol, reference compound]
2 = OCC(CO)N[C@H]1C[C@](O)(CO)[C@@H](O)[C@H](O)[C@H]1O
Data request: Field: entry with larger pKi (options 1 / 2 ). // return label of chosen record
Data returned: 1
(1: 5.44, 2: 5.12)

###

Target: rat intestinal sucrase (Rattus norvegicus)
Sequence (P23739 whole entry): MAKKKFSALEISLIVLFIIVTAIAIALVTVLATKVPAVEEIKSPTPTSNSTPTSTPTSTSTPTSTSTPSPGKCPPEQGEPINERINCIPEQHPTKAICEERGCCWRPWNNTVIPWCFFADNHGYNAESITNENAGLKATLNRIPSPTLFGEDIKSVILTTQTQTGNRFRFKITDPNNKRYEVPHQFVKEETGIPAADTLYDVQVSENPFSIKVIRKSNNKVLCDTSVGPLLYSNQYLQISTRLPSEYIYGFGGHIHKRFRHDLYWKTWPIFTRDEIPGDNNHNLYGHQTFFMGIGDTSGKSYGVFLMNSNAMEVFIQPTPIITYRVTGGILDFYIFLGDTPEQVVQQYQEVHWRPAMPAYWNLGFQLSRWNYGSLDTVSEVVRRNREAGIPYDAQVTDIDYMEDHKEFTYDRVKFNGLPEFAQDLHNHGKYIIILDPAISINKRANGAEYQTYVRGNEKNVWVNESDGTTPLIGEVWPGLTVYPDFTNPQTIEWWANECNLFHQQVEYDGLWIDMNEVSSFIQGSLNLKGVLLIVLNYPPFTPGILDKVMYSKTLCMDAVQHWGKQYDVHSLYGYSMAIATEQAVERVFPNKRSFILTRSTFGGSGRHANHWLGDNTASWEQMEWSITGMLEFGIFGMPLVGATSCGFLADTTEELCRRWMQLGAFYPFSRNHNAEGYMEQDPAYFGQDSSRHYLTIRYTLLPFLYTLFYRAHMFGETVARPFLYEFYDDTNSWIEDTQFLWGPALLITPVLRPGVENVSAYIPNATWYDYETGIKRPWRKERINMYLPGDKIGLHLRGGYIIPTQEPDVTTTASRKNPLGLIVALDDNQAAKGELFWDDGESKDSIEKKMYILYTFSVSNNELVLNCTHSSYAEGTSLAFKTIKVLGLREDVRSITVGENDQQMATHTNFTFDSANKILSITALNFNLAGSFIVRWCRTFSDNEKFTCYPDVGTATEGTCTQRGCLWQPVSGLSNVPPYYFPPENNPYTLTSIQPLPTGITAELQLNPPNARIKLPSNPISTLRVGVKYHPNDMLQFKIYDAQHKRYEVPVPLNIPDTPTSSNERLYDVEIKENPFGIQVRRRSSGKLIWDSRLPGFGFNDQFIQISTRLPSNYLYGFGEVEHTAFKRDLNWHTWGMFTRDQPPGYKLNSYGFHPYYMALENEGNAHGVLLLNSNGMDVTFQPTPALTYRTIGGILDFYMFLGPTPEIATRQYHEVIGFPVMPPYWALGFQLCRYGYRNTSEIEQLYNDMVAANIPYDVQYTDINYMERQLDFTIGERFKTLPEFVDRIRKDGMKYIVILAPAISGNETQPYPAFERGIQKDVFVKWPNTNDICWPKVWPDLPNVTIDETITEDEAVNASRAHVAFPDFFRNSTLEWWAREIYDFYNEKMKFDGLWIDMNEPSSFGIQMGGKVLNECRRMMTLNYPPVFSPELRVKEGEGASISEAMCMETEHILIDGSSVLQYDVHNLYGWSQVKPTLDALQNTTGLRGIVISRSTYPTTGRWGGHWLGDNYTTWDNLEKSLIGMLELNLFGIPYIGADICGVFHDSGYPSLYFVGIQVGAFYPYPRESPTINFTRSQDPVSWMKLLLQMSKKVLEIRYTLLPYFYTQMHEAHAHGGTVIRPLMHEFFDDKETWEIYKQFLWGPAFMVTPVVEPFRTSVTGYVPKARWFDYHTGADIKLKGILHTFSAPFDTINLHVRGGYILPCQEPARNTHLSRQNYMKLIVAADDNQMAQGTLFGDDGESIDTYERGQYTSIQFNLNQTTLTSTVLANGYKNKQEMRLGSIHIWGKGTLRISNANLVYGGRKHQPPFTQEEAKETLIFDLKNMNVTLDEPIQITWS
Test: Inhibitory effects on rat intestinal α-glucosidases: sucrase
Format: biochemical
result-type: IC50 (µM)
Output spec: scalar in µM, unitless text.

Data request: Hello, I am looking for reported IC50 with rat intestinal sucrase (Rattus norvegicus) for [O-][C@@H](CO)[C@H](O)C[S@+]1C[C@@H](O)[C@H](O)[C@H]1CO [Compound 2, neosalacinol, reference compound] . Could you help?
Data returned: 3.6

###

Target: rat intestinal isomaltase (Rattus norvegicus)
Sequence (P23739 whole entry): as above
Experiment: Inhibitory effects on rat intestinal α-glucosidases: isomaltase
Format: biochemical
result-type: IC50 (nM)
Output spec: scalar in nM, unitless text.

Data request: Hello, I am looking for reported IC50 with rat intestinal isomaltase (Rattus norvegicus) for [O-][C@@H](CO)[C@H](O)C[S@+]1C[C@@H](O)[C@H](O)[C@H]1CO [Compound 2, neosalacinol, reference compound] . Could you help?
Data returned: 450

###

Molecular target: rat intestinal maltase
Test: Inhibitory effects on rat intestinal α-glucosidases: maltase
Type: biochemical
Settings: read-out: Apparent IC50, Maltase; rat intestinal disaccharidases
result-type: pIC50
Note on pIC50: it is the negative log10 of concentration, concentration in mol/L.

Data request: I would be grateful if you could share the reported pIC50 for [O-][C@@H](CO)[C@H](O)C[S@+]1C[C@@H](O)[C@H](O)[C@H]1CO [Compound 2, neosalacinol, reference compound] .
Data returned: 4.60
